EXPERIMENTAL SYSTEM: CYP2A6 (Homo sapiens, UniProt P11509)
Sequence (P11509 1-494): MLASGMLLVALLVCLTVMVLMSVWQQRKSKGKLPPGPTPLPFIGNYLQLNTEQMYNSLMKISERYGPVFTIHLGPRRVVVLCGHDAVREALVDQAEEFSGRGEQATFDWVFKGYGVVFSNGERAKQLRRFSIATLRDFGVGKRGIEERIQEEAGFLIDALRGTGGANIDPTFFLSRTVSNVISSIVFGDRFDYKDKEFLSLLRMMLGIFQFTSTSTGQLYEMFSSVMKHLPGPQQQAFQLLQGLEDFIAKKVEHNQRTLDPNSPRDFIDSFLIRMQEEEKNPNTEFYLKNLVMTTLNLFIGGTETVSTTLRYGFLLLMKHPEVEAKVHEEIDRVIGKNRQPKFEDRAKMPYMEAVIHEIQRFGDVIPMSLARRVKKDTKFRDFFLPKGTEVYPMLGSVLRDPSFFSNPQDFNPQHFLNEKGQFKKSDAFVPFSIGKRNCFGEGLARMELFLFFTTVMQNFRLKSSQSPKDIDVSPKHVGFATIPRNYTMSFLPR
PROTOCOL DETAILS: Percentage inhibition of coumarin hydroxylase activity in irreversibly inhibited human liver microsomes vs control batch
ASSAY CONTEXT: probe coumarin
PARAMETER MEASURED: inhibition at 30 min, 15 µM (%)
The reply should be a number in %, with the unit left off.

# input Form field: reported inhibition at 30 min, 15 µM of S=P(N1CC1)(N1CC1)N1CC1
# output 64
